FYI, the data here is from the supplement of paper PMC4466140.

// reported SPOT peptide array binding signal intensity for each item listed
ASSAY SYSTEM: AgCyk3
EXPERIMENT DESCRIPTION: SPOT peptide array binding signal intensity (averaged, normalized) (arbitrary units (background-subtracted, floor 0; scale differs between SH3 domains)); higher = stronger binding of the SH3 domain to the peptide
OBSERVATION TYPE: SPOT peptide array binding signal intensity

[
  {
    "BINDER": "AERNYAPRLPRRETS",
    "RESULT": 1
  },
  {
    "BINDER": "VNFRRIPTGPDSPPT",
    "RESULT": "≤ 0"
  },
  {
    "BINDER": "APPLPPTAPPPPSLP",
    "RESULT": "≤ 0"
  },
  {
    "BINDER": "PIVPSSPAPPLPLSG",
    "RESULT": "≤ 0"
  }
]
